- System: MRSA KS1
- protocol notes: MIC, broth microdilution, MRSA KS1
- Format: cell-based, Staphylococcus aureus
- condition info: MRSA KS1; ratio of MIC of vancomycin and MIC of analogue
quantity kind: MIC-fold improvement vs. vancomycin
Form rule: numeric answer, no unit written next to it.

Example compounds with recorded MIC-fold improvement vs. vancomycin:
{"columns": ["compound", "MIC-fold improvement vs. vancomycin"],
 "data": [
  ["CN[C@H](CC(C)C)C(=O)N[C@H]1C(=O)N[C@@H](CC(N)=O)C(=O)N[C@H]2C(=O)N[C@H]3C(=O)N[C@H](C(=O)N[C@H](C(=O)NCC(=O)Nc4ccc(NS(=O)(=O)c5ccccc5)cc4)c4cc(O)cc(O)c4-c4cc3ccc4O)[C@H](O)c3ccc(c(Cl)c3)Oc3cc2cc(c3O[C@@H]2O[C@H](CO)[C@@H](O)[C@H](O)[C@H]2O[C@H]2C[C@](C)(N)[C@H](O)[C@H](C)O2)Oc2ccc(cc2Cl)[C@H]1O [Vanc-60]", 2],
  ["CN[C@H](CC(C)C)C(=O)N[C@H]1C(=O)N[C@@H](CC(N)=O)C(=O)N[C@H]2C(=O)N[C@H]3C(=O)N[C@H](C(=O)N[C@H](C(=O)NCCNC(=O)/C=C/c4ccc(Cl)cc4)c4cc(O)cc(O)c4-c4cc3ccc4O)[C@H](O)c3ccc(c(Cl)c3)Oc3cc2cc(c3O[C@@H]2O[C@H](CO)[C@@H](O)[C@H](O)[C@H]2O[C@H]2C[C@](C)(N)[C@H](O)[C@H](C)O2)Oc2ccc(cc2Cl)[C@H]1O [Vanc-20]", 2],
  ["CN[C@H](CC(C)C)C(=O)N[C@H]1C(=O)N[C@@H](CC(N)=O)C(=O)N[C@H]2C(=O)N[C@H]3C(=O)N[C@H](C(=O)N[C@H](C(=O)NCC(=O)Nc4ccccc4)c4cc(O)cc(O)c4-c4cc3ccc4O)[C@H](O)c3ccc(c(Cl)c3)Oc3cc2cc(c3O[C@@H]2O[C@H](CO)[C@@H](O)[C@H](O)[C@H]2O[C@H]2C[C@](C)(N)[C@H](O)[C@H](C)O2)Oc2ccc(cc2Cl)[C@H]1O [Vanc-3]", 1]
]}

Task: Answer with the recorded MIC-fold improvement vs. vancomycin of CN[C@H](CC(C)C)C(=O)N[C@H]1C(=O)N[C@@H](CC(N)=O)C(=O)N[C@H]2C(=O)N[C@H]3C(=O)N[C@H](C(=O)N[C@H](C(=O)NCCNC(=O)/C=C/c4ccc(C)cc4)c4cc(O)cc(O)c4-c4cc3ccc4O)[C@H](O)c3ccc(c(Cl)c3)Oc3cc2cc(c3O[C@@H]2O[C@H](CO)[C@@H](O)[C@H](O)[C@H]2O[C@H]2C[C@](C)(N)[C@H](O)[C@H](C)O2)Oc2ccc(cc2Cl)[C@H]1O [Vanc-53] only.
Result: 2

Task: Answer with the recorded MIC-fold improvement vs. vancomycin of CN[C@H](CC(C)C)C(=O)N[C@H]1C(=O)N[C@@H](CC(N)=O)C(=O)N[C@H]2C(=O)N[C@H]3C(=O)N[C@H](C(=O)N[C@H](C(=O)NCC(=O)Nc4ccc(Cl)cn4)c4cc(O)cc(O)c4-c4cc3ccc4O)[C@H](O)c3ccc(c(Cl)c3)Oc3cc2cc(c3O[C@@H]2O[C@H](CO)[C@@H](O)[C@H](O)[C@H]2O[C@H]2C[C@](C)(N)[C@H](O)[C@H](C)O2)Oc2ccc(cc2Cl)[C@H]1O [Vanc-44] only.
Result: 1

Attribution: paper PMC6001238
